tested on: passive cutaneous anaphylaxis reaction; test: Passive Cutaneous Anaphylaxis Test (PCA), topical antiallergic activity; format: in vivo, Male Sprague Dawley rats; details: Rattus norvegicus; Topical Dose 0.02%; read-out: Percent Inhibition
measure: inhibition in vivo at 0.02 % (%)
Just the number in %, nothing appended.

Consider the following illustrative entries.
CN(C)CCOc1ccccc1Cc1ccccc1	2.6
CN(C)CCOC(c1ccccc1)c1ccccc1 [Diphenhydramine, diphenhydramine]	0
Fc1ccc(C(c2ccc(F)cc2)N2CCN(C/C=C/c3ccccc3)CC2)cc1	16.3

// Input: CN(C)CCC(c1ccc(Cl)cc1)c1ccccn1 (stereo not shown) . Output its inhibition in vivo at 0.02 % only.
20

----------
Below, each entry is listed alongside its reported inhibition in vivo at 2 %.
system: passive cutaneous anaphylaxis reaction; assay: Passive Cutaneous Anaphylaxis Test (PCA), topical antiallergic activity; assay type: in vivo, Male Sprague Dawley rats; conditions: Rattus norvegicus; Topical Dose 2.00%; read-out: Percent Inhibition
Just the number in %, nothing appended.

CN(C)CCC(c1ccc(Cl)cc1)c1ccccn1 (stereo not shown)	16.7

Under passive cutaneous anaphylaxis reaction, report inhibition in vivo at 2 % for CN(C)CCOC(c1ccccc1)c1ccccc1 [Diphenhydramine, diphenhydramine]
43.9

Under passive cutaneous anaphylaxis reaction, report inhibition in vivo at 2 % for CN(C)CCOc1ccccc1Cc1ccccc1
25.9

Under passive cutaneous anaphylaxis reaction, report inhibition in vivo at 2 % for Fc1ccc(C(c2ccc(F)cc2)N2CCN(C/C=C/c3ccccc3)CC2)cc1
17.2

----------
test system: K^+ -stimulated Ca^++ -uptake in rabbit aortic slices; test: Calcium Uptake in Rabbit Aorta (K+-stimulated Ca++ uptake in aortic slices); format: cell-based, New Zealand white rabbits; settings: Oryctolagus cuniculus, read-out: IC50, K+-stimulated Ca++ uptake
measure: IC50

// Input: CN1CCC(=C2c3ccccc3C=Cc3ccccc32)CC1 . Output its IC50 only.
~1000 nM
